TARGET OF ASSAY: human tyrosinase (hTyr) (Homo sapiens)
Sequence (P14679 19-476 limits assumed): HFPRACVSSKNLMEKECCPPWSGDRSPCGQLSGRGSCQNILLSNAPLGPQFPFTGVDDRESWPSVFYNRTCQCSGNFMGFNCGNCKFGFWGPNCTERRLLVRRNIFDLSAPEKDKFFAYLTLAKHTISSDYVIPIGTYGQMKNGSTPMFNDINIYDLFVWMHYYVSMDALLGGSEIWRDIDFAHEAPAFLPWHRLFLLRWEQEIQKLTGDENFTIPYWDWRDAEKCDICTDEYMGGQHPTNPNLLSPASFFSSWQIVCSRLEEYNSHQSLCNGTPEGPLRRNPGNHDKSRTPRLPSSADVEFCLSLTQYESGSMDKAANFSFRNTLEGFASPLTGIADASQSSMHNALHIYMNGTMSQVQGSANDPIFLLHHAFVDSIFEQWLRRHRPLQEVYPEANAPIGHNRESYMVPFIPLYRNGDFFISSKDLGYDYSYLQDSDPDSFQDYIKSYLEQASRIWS
ASSAY PROCEDURE: L-Dopa oxidase activity of hTyr, dose-response profiles (MBTH assay)
ASSAY CONDITIONS: dopa oxidase activity of hTyr, 1 mM L-Dopa, phosphate buffer pH 7.0, 37 °C; values above 3 mM given as >3000
Just a reminder that ties go to condition not met: only EC50 strictly below 20 µM counts as condition met.

Solved entries:
CCCCc1ccc(O)c(C)c1O ... condition not met
O=C(Nc1cccc(-c2ccc(O)cc2O)c1)C1CCCCC1 ... condition not met
O=C(NC1CCCCC1)c1nc(-c2ccc(O)cc2O)cs1 ... condition not met
Cc1sc(NC(=O)C2CCCCC2)nc1-c1ccc(O)cc1O ... condition not met
CC(C)(O)c1ccc(C(=O)Nc2nc(-c3ccc(O)cc3O)cs2)cc1 ... condition met

QUERY: State whether 20 µM exceeds EC50 recorded for CC(C)(C)C(=O)Nc1nc(-c2ccc(O)cc2O)cs1 .
RESULT: condition met

QUERY: Problem: For the compound O=C(Cc1ccc(CO)cc1)Nc1nc(-c2ccc(O)cc2O)cs1 , is EC50 under 20 µM?
RESULT: condition met

QUERY: Lab log: compare recorded EC50 with 20 µM; is it strictly lower for Cc1cc(C)cc(Nc2nc(-c3ccc(O)cc3O)cs2)c1 ?
RESULT: condition not met

QUERY: In the record for CN(c1nc(-c2ccc(O)cc2O)cs1)C1CCCCC1 , is EC50 less than 20 µM?
RESULT: condition not met

QUERY: Determine whether this compound shows EC50 lower than 20 µM (ties excluded): CCC(=O)Nc1nc(-c2ccc(O)cc2F)cs1
RESULT: condition not met

QUERY: I wonder whether Oc1ccc(-c2csc(Nc3ccccc3)n2)c(O)c1 has EC50 below 20 µM. Can you tell?
RESULT: condition met

###

TARGET OF ASSAY: UniProt:P14679
ASSAY PROCEDURE: L-Dopa oxidase activity of hTyr, dose-response profiles (MBTH assay)
ASSAY CONDITIONS: dopa oxidase activity of hTyr, 1 mM L-Dopa, phosphate buffer pH 7.0, 37 °C; values above 3 mM given as >3000
Below: a set of entries, each annotated with reported pEC50.
Please treat pEC50 as minus the base-10 logarithm of the molar concentration.

CC(C)(C)c1ccc(C(=O)Nc2nc(-c3ccc(O)cc3O)cs2)cc1 ... 4.09
CCCCc1ccc(O)cc1O [W039, 4-butylresorcinol, reference compound] ... 4.68
Oc1ccc(-c2csc(NCCc3ccccc3)n2)c(O)c1 ... 3.85
Oc1ccc(-c2csc(NC3CCCCC3)n2)c(O)c1 ... 4.80
O=C(Nc1nc(-c2ccc(O)cc2O)cs1)C1CCCCC1 ... 5.34
CCCCCCC(=O)Nc1nc(-c2ccc(O)cc2O)cs1 ... 4.82
O=C(O)c1ccc(Nc2nc(-c3ccc(O)cc3O)cs2)cc1O ... 5.46
CC(C)C(=O)Nc1nc(-c2ccc(O)cc2O)cs1 ... 5.96
CN(C(=O)C1CCCCC1)c1nc(-c2ccc(O)cc2O)cs1 ... 2.85
CNc1nc(-c2ccc(O)cc2O)cs1 ... 4.48

QUERY: Requested field: pEC50. Item: O=C(Nc1nc(-c2ccc(O)cc2O)cs1)c1ccc(CO)cc1
RESULT: 5.80
